B1: PhoQ; a variant is named by its letters at X, in order, P23837 (parent)
chain: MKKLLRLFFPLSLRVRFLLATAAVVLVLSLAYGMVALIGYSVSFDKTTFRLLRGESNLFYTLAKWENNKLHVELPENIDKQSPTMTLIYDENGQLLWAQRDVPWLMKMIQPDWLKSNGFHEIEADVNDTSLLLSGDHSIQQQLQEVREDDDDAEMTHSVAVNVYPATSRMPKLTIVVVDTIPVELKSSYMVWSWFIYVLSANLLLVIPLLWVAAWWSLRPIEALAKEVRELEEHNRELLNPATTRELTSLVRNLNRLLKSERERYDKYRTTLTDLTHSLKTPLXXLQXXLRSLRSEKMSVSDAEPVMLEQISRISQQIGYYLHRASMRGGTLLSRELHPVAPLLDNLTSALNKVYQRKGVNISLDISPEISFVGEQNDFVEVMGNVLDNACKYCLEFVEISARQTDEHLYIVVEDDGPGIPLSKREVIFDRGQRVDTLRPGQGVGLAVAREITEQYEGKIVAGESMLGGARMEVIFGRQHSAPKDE

Variants of: B1
test: enrichment ratio after two sorts for PhoP signalling (ratio (wild type AVST 3.29)); higher = more functional
measurement-setup: with PhoP (E. coli)
In all, about 140,000 sequences were measured (“enrichment ratio after two sorts for PhoP signalling”: median about 0, highest 2% from about 11 on). The list comes from a sample in which the highest values are over-represented; it also holds close analogues and randomly drawn sequences.
enrichment ratio values by entry

[
  {
    "mutation": "IKSM",
    "enrichment ratio": "≤ 0.25"
  },
  {
    "mutation": "SVCH",
    "enrichment ratio": 12.5
  },
  {
    "mutation": "TCVT",
    "enrichment ratio": "≤ 0.25"
  },
  {
    "mutation": "KIQT",
    "enrichment ratio": "≤ 0.25"
  },
  {
    "mutation": "SVMQ",
    "enrichment ratio": 15.2
  },
  {
    "mutation": "HKMM",
    "enrichment ratio": "≤ 0.25"
  },
  {
    "mutation": "TVMM",
    "enrichment ratio": 0.563
  },
  {
    "mutation": "GFIL",
    "enrichment ratio": "≤ 0.25"
  }
]

What value of enrichment ratio has been reported for the following variant? TCST
24.9

Using the record for HETM , report its enrichment ratio.
≤ 0.25

For the variant TSHF , what enrichment ratio is on record?
13.4

Query: enrichment ratio; subject: IEYH
≤ 0.25

So what does the record say about enrichment ratio for MSAY ?
7.95

Looking for the measured enrichment ratio of KTMK , can you help?
≤ 0.25
